- protocolText: Growth inhibition of human U373MG cells containing UhCE1 expressing plasmid after 1 hr
- Format: functional, cell-based, U-373MG ATCC
- studyConditions: U373 MG
endpointName: IC50 (nM)
Write it as a number; the unit nM goes unstated.

Find the recorded IC50 belonging to COc1cccc2c1C(=O)c1c(O)c3c(c(O)c1C2=O)C[C@@](O)(C(=O)CO)C[C@@H]3OC1C[C@H](N)[C@H](O)[C@H](C)O1 (single isomer, unassigned) and report it.
158

###

- protocolText: Growth inhibition of doxorubicin-resistant human MCF7/Adr cells after 24 hrs
- Format: functional, cell-based
- studyConditions: NCI/ADR-RES
pIC50: −log10 of the molar value.
endpointName: pIC50

smilesCode	pIC50
O=S(=O)(Nc1ccc(NS(=O)(=O)c2ccc(Cl)cc2)cc1)c1ccc(Cl)cc1	< 6.00

// below: pIC50 requested for another compound
Find the recorded pIC50 belonging to "CCCCCOC(=O)Nc1ccc(COC(=O)N2CO[C@@H]3[C@H](C)O[C@H](O[C@H]4C[C@](O)(C(=O)CO)Cc5c(O)c6c(c(O)c54)C(=O)c4c(OC)cccc4C6=O)C[C@@H]32)cc1" and report it.
< 6.00

###

- protocolText: Growth inhibition of […] human MCF7/Adr cells after 24 hrs in presence of human intestinal carboxylesterase
- Format: functional, cell-based
- studyConditions: NCI/ADR-RES
endpointName: IC50 (nM)
Write it as a number; the unit nM goes unstated.

Find the recorded IC50 belonging to "CCCCCOC(=O)Nc1ccc(COC(=O)N2CO[C@@H]3[C@H](C)O[C@H](O[C@H]4C[C@](O)(C(=O)CO)Cc5c(O)c6c(c(O)c54)C(=O)c4c(OC)cccc4C6=O)C[C@@H]32)cc1" and report it.
12.6

###

- Tested on: MCF7
- protocolText: Growth inhibition of doxorubicin-sensitive human MCF7 cells after 24 hrs in presence of human intestinal carboxylesterase
- Format: functional, cell-based
- studyConditions: MCF7, 24 h
endpointName: IC50 (nM)
Write it as a number; the unit nM goes unstated.

Please provide the recorded IC50 for "CCCCCOC(=O)Nc1ccc(COC(=O)N2CO[C@@H]3[C@H](C)O[C@H](O[C@H]4C[C@](O)(C(=O)CO)Cc5c(O)c6c(c(O)c54)C(=O)c4c(OC)cccc4C6=O)C[C@@H]32)cc1" , tested on MCF7.
15.8

###

- protocolText: Growth inhibition of human N-HepG2 cells
- Format: functional, cell-based
endpointName: IC50 (nM)
Write it as a number; the unit nM goes unstated.

Find the recorded IC50 belonging to "CCCCCOC(=O)Nc1ccc(COC(=O)N2CO[C@@H]3[C@H](C)O[C@H](O[C@H]4C[C@](O)(C(=O)CO)Cc5c(O)c6c(c(O)c54)C(=O)c4c(OC)cccc4C6=O)C[C@@H]32)cc1" and report it.
20

###

- protocolText: Growth inhibition of […] human MCF7/Adr cells after 24 hrs in presence of N-Hep G2 lysate
- Format: functional, cell-based
- studyConditions: NCI/ADR-RES
endpointName: pIC50
Please treat pIC50 as minus the base-10 logarithm of the molar concentration.

Find the recorded pIC50 belonging to "CCCCCOC(=O)Nc1ccc(COC(=O)N2CO[C@@H]3[C@H](C)O[C@H](O[C@H]4C[C@](O)(C(=O)CO)Cc5c(O)c6c(c(O)c54)C(=O)c4c(OC)cccc4C6=O)C[C@@H]32)cc1" and report it.
6.80
